The reported measurements were obtained from ChEMBL document CHEMBL1201862.

- Tested on: K562
- experiment.notes: NCI tumour cell line growth inhibition, 48 h
The source made the active and inactive calls. Rule as the data show it: active = GI50 up to about 1.1 µM and inactive = higher.
endpoint: GI50

Recorded results for 8 molecules are shown here.
molecule="CC1OCC2OC(C)OC(C3C4=C(CC(C)(C)CC4=O)OC4=C3C(=O)CC(C)(C)C4)C2O1 (stereo unspecified)" endpoint=GI50 result="> 100 µM (inactive)"
molecule=COc1ccc2c(c1)Cc1c(NCCN(C)C)ccc(C(=O)NCCCN(C)CCCNC(=O)c3ccc(NCCN(C)C)c4c3Nc3ccc(OC)cc3C4)c1N2 endpoint=GI50 result="< 0.011 µM (active)"
molecule=CCCNC(=O)NNC(=O)c1c[nH]c2nc(C)ccc2c1=O endpoint=GI50 result="> 100 µM (inactive)"
molecule="COC(=O)C1=Cc2c(OC)cc(OC)c(OC)c2[C@H](c2cc(OC)c(OC)cc2OC)C1C(=O)OC (stereo partly specified)" endpoint=GI50 result="20.1 µM (inactive)"
molecule=Nc1c2c(nc3cc(F)c(F)cc13)CCC2 endpoint=GI50 result="35.3 µM (inactive)"
molecule="O=C1N=CN=C2C=CC(Cl)=C(I)C12 (stereo unspecified)" endpoint=GI50 result="> 100 µM (inactive)"
molecule="COc1ccc(C(=O)C(C(=O)C(=O)NC2C3CC4CC(C3)CC2C4)c2ccc(OC)cc2)cc1 (stereo unspecified)" endpoint=GI50 result="> 100 µM (inactive)"
molecule=O=C1Oc2ccccc2C(=O)/C1=C/NC(=S)Nc1ccccc1 endpoint=GI50 result="56.4 µM (inactive)"

Data point: CC(=O)C(C(C)=O)[C@H]1OC(C)(C)O[C@H]1[C@H]1COC(C)(C)O1 ; GI50 = 34.4 µM (inactive)

response.value for C=C(Cl)/C(=C\Br)CCC(Cl)C(C)C.C=C(Cl)/C(=C\Cl)CCC(Cl)C(C)C (stereo unspecified) (field: GI50) = 4.03 µM (inactive)

GI50 reading for CCCCCCCCCCCCCCCCCc1nc(Cl)nc(Cl)c1Cl : > 100 µM (inactive)

Input Sc1ccccc1S . Output GI50: > 100 µM (inactive)

Form: molecule = Cc1ccc(S(=O)(=O)CNC(=S)CCCC(=S)NCS(=O)(=O)c2ccc(C)cc2)cc1 ; GI50 = 53.6 µM (inactive)

Looking up CC(C)(CO)N1C(=O)c2ccccc2C1(O)c1ccc(Cl)cc1 (stereo unspecified) , I see its GI50 listed as > 100 µM (inactive)

The reported value for CCOC(=O)c1sc2nc(SC)nc3c2c1NC(=O)CN3c1cccc(F)c1 in terms of GI50 is 22.4 µM (inactive)

Per the records, this molecule ( C=CC(C)CCC(C/C=C(\C)CCCC(C)C)C(=C)CCCC(C)C (stereo unspecified) ) has GI50 equal to > 100 µM (inactive)

GI50 in this record for CCOC(=O)c1c(-c2cccc(Cl)c2)c(C(=O)OC)c(C)c2sc(C=O)nc12 : 27.5 µM (inactive)

Lab book: GI50 of CC(NO)/C(=N/O)c1ccco1 (stereo unspecified) noted as > 10 µM (inactive)

// GI50 value for C/C(=N/NC(=S)Nc1ccc([N+](=O)[O-])cc1)c1cccc(/C(C)=N\NC(=S)Nc2ccc([N+](=O)[O-])cc2)n1 : 0.569 µM (active)

Note to self: GI50 recorded for CC(NNC(=O)c1cc[n+]([BH2-]C#N)cc1)c1ccc(Cl)cc1Cl (stereo unspecified) was 24.2 µM (inactive)

For this molecule ( N#CC1C(=O)C(=O)N(c2ccccc2)C1=O (stereo unspecified) ), measured GI50 is > 100 µM (inactive)
